Quick record of IC50 HepG2 values for HepG2.
endpointLabel: IC50 HepG2

{"smilesEntry": "N=C(N)NCCC[C@H](NC(=O)[C@H]1NC(=O)[C@H](CO)NC(=O)[C@H]2NC(=O)[C@H](CCC(N)=O)NC(=O)[C@@H](N)Cc3c[nH]c4c(cccc34)O[C@@H]2c2c[nH]c3cc(ccc23)[C@@H]1CCCN)C(=O)N[C@@H](Cc1c[nH]c2ccccc12)C(=O)O", "systemUnderTest": "HepG2", "recordedResult": "> 37 µg/mL"}
{"smilesEntry": "C[C@@H](O)[C@@H]1NC(=O)[C@H]2NC(=O)[C@H](CO)NC(=O)[C@@H](N)Cc3c[nH]c4c(cccc34)O[C@@H]2c2c[nH]c3cc(ccc23)[C@H](CCCN)[C@@H](C(=O)N[C@@H](CCCNC(=N)N)C(=O)N[C@@H](Cc2c[nH]c3ccccc23)C(=O)O)NC1=O", "systemUnderTest": "HepG2", "recordedResult": "> 37 µg/mL"}
{"smilesEntry": "C[C@@H](O)[C@@H]1NC(=O)[C@H]2NC(=O)[C@H](CC(=O)O)NC(=O)[C@@H](N)Cc3c[nH]c4c(cccc34)O[C@@H]2c2c[nH]c3cc(ccc23)[C@H](CCCN)[C@@H](C(=O)N[C@@H](CCCNC(=N)N)C(=O)N[C@@H](Cc2c[nH]c3ccccc23)C(=O)O)NC1=O", "systemUnderTest": "HepG2", "recordedResult": "> 37 µg/mL"}
{"smilesEntry": "C[C@@H](O)[C@@H]1NC(=O)[C@H]2NC(=O)[C@H](CC(N)=O)NC(=O)[C@@H](N)Cc3c[nH]c4c(cccc34)O[C@@H]2c2c[nH]c3cc(ccc23)[C@H](CCCN)[C@@H](C(=O)N[C@@H](CCC(N)=O)C(=O)N[C@@H](Cc2c[nH]c3ccccc23)C(=O)O)NC1=O", "systemUnderTest": "HepG2", "recordedResult": "> 37 µg/mL"}
{"smilesEntry": "C[C@@H](O)[C@@H]1NC(=O)[C@H]2NC(=O)[C@H](CC(N)=O)NC(=O)[C@@H](N)Cc3c[nH]c4c(cccc34)O[C@@H]2c2c[nH]c3cc(ccc23)[C@H](CCNC(=N)N)[C@@H](C(=O)N[C@@H](CCCNC(=N)N)C(=O)N[C@@H](Cc2c[nH]c3ccccc23)C(=O)O)NC1=O", "systemUnderTest": "HepG2", "recordedResult": ">37 µg/mL"}

----------
Readings of pKd for the listed compounds
- systemUnderTest: EcBamA (E. coli BamA barrel domain) (Escherichia coli, UniProt P0A940, C690S/C700S)
- Construct: The E. coli BamA barrel domain (BamA-β) (residues 421–810, C690S, C700S)
- assayProcedure: Microscale thermophoresis (MST) KD determination
- Description: As an alternative to the previously published methods using isothermal titration calorimetry (ITC), we established a KD determination assay using microscale thermophoresis (MST) to enable higher throughput. […]
pKd: −log10 of the molar value.

{"compound": "N=C(N)NCCC[C@H](NC(=O)[C@H]1NC(=O)[C@H](CO)NC(=O)[C@H]2NC(=O)[C@H](CCC(N)=O)NC(=O)[C@@H](N)Cc3c[nH]c4c(cccc34)O[C@@H]2c2c[nH]c3cc(ccc23)[C@@H]1CCCN)C(=O)N[C@@H](Cc1c[nH]c2ccccc12)C(=O)O [D69, darobactin 69]", "pKd": 5.85}
{"compound": "C[C@@H](O)[C@@H]1NC(=O)[C@H]2NC(=O)[C@H](CO)NC(=O)[C@@H](N)Cc3c[nH]c4c(cccc34)O[C@@H]2c2c[nH]c3cc(ccc23)[C@H](CCCN)[C@@H](C(=O)N[C@@H](CCCNC(=N)N)C(=O)N[C@@H](Cc2c[nH]c3ccccc23)C(=O)O)NC1=O [D64]", "pKd": 5.29}
{"compound": "C[C@@H](O)[C@@H]1NC(=O)[C@H]2NC(=O)[C@H](CCC(N)=O)NC(=O)[C@@H](N)Cc3c[nH]c4c(cccc34)O[C@@H]2c2c[nH]c3cc(ccc23)[C@H](CCCN)[C@@H](C(=O)N[C@@H](CCCNC(=N)N)C(=O)N[C@@H](Cc2c[nH]c3ccccc23)C(=O)O)NC1=O [D61]", "pKd": 5.44}
{"compound": "C[C@@H](O)[C@@H]1NC(=O)[C@H]2NC(=O)[C@H](CC(N)=O)NC(=O)[C@@H](N)Cc3c[nH]c4c(cccc34)O[C@@H]2c2c[nH]c3cc(ccc23)[C@H](CCNC(=N)N)[C@@H](C(=O)N[C@@H](CCCNC(=N)N)C(=O)N[C@@H](Cc2c[nH]c3ccccc23)C(=O)O)NC1=O [D39]", "pKd": 4.96}
{"compound": "C[C@@H](O)[C@@H]1NC(=O)[C@H]2NC(=O)[C@H](CCC(=O)O)NC(=O)[C@@H](N)Cc3c[nH]c4c(cccc34)O[C@@H]2c2c[nH]c3cc(ccc23)[C@H](CCCN)[C@@H](C(=O)N[C@@H](CCCNC(=N)N)C(=O)N[C@@H](Cc2c[nH]c3ccccc23)C(=O)O)NC1=O [D58]", "pKd": 5.29}
